Record form. Attribute: TGI. Fill in for each entry.
Tested on: SK-MEL-5 melanoma
test: NCI tumour cell line growth inhibition, 48 h

[ask] Give TGI for the following compound: CC1=CC=CC(C)(C)CC1(O[Si](C)(C)C)C(F)(F)F (centres undefined)
[reply] > 100 µM

[ask] Read the entry "Cc1nc(Cl)c(CBr)c(Cl)n1" and write its reported TGI.
[reply] 2.88 µM

[ask] Kindly indicate its recorded TGI. Item: "CN(C)CCNc1nc2ccccc2c2[nH]c3ccccc3c12"
[reply] 3.94 µM

[ask] Consider the compound "O=C(O/N=C1/CCC/C1=C\c1ccccc1)c1ccc([N+](=O)[O-])cc1" . State its measured TGI.
[reply] > 100 µM

[ask] Answer with reported TGI of "CC1=CC(=O)N(n2c(C)n[nH]c2=O)C1=O"
[reply] > 100 µM

[ask] Look up and state reported TGI for "COC(=O)c1c2c(c(C)[n+]([O-])c1C)C(=O)C=CC2=O"
[reply] 2.41 µM

[ask] Please report TGI for the following compound: "CCOP(=O)(OCC)/C(F)=C/c1ccccc1"
[reply] > 100 µM

[ask] Respond only with TGI recorded for "C=CC/C(C(=O)OC)=C(/C(=O)OC)N(CCC)CCC"
[reply] > 100 µM

[ask] Let me know recorded TGI for C1CN2N3CCCC23C1 (centres undefined) , thanks.
[reply] > 100 µM

----------
Tested on: SK-MEL-2 melanoma
test: NCI tumour cell line growth inhibition, 48 h
quantity.name: TGI (µM)
Note: unit µM is implicit; provide only the numeric part.

[ask] Quick one: give measured TGI for "C[C@@H]1Cc2c([nH]c3ccccc23)[C@@H](c2c(F)cc(/C=C/C(=O)O)cc2F)N1CC(C)(C)F"
[reply] 32.8

[ask] State its TGI: "O=C(O)c1cc(S(=O)(=O)N=NC=C2c3ccccc3N(O)c3ccccc32)ccc1O"
[reply] 64.2

[ask] For OC(c1cccc(C(F)(F)F)c1)c1cnccc1NC1CCCCCC1 (stereo unspecified) , write its TGI.
[reply] 3.34

[ask] # return recorded TGI for entry "Cc1nc(Cl)c(CBr)c(Cl)n1"
[reply] 4.68

[ask] Consider the molecule "COc1cc2c(c(O)c1C)C(=O)C(Cl)=CC2=O" and give its recorded TGI.
[reply] 31.2

[ask] Using known records, supply TGI for "Cc1cc(C)c2c(n1)S(=O)(=O)N(CCCN1CCN(c3cccc(C(F)(F)F)c3)CC1)/C(=C(\O)c1ccc(Cl)cc1)C2=O"
[reply] 16.8

[ask] Provide measured TGI value, entry: "CN(C)c1ccc(/C=C2\C[N+](C)(C)C/C(=C\c3ccc(N(C)C)cc3)C2=O)cc1"
[reply] 36.1

[ask] Please indicate TGI recorded for "CC1=C[C@@H]2Cc3occc3C(C)(C)[C@@H]2CC1"
[reply] 24.5

[ask] Supply recorded TGI for "O=C1c2ccccc2C(=O)c2c1ccc1[nH]c(CCl)nc21" here.
[reply] 12.2

[ask] Indicate its recorded TGI; the molecule in question is "C[Si](C)(C)c1ccc(CC2(Cc3ccc([Si](C)(C)C)cc3)CCNC2)cc1"
[reply] 3.41

[ask] Report TGI for "C/C(=N/NC(=S)Nc1cccc(C)c1)c1ccccn1"
[reply] 4.42

[ask] Please indicate TGI recorded for CCC[C@H](C)[C@H]1NC(=O)[C@@H](NC(=O)[C@@H](CC(C)C)N(C)C(=O)C2CCCN2C(=O)[C@H](C)O)[C@@H](C)OC(=O)[C@H](CC(C)C)N(C)C(=O)[C@@H]2CCCN2C(=O)[C@H](CC(C)C)NC(=O)[C@@H](C)C(=O)[C@H](C(C)C)OC(=O)C[C@@H]1O (stereo partly specified)
[reply] 0.00468

[ask] Supply TGI value. Item: "CN1CCN(Cc2ccc(NC(=O)c3cncc(C#Cc4cnc(N)c5ccccc45)c3)cc2C(F)(F)F)CC1"
[reply] 0.697

[ask] Tell me measured TGI for "CC[n+]1ccc2c(c1)C(=O)c1nccc3c1c-2nc1ccccc13" please.
[reply] 6.08

[ask] # return recorded TGI for input "N#Cc1c2c(c(Nc3ccc(F)cc3)n3c1nc1ccccc13)CCC2"
[reply] 40.6

[ask] Please look at this molecule and report its TGI: N#Cc1cnn2ccn(C3OC(COC(=O)c4ccccc4)C(OC(=O)c4ccccc4)C3OC(=O)c3ccccc3)c12 (stereo unspecified)
[reply] 0.843

----------
So I've got a bunch of compounds here, and I need their TGI values.
System: 786-0 renal
test: NCI tumour cell line growth inhibition, 48 h

[ask] Return the recorded TGI value; entry: "CC(=O)Nc1ccc(Cl)c(Cl)c1"
[reply] > 100 µM

[ask] // fetch TGI given entry "C[C@]12CC/C(=N\O)C=C1CC[C@@H]1[C@@H]2CC[C@]2(C)C(=N/O)/C(=C/c3cccnc3)C[C@@H]12"
[reply] > 100 µM

[ask] Kindly indicate its recorded TGI. Item: "CC1(C)N=C(N)N=C(N)N1c1ccc(CCCCc2ccc(S(=O)(=O)F)cc2Cl)c(Cl)c1"
[reply] 76.9 µM

[ask] Give reported TGI value for COc1ccc(NC2Oc3cc4c(cc3C(c3cc(OC)c(OC)c(OC)c3)C2C)OCO4)cc1 (stereo not given)
[reply] > 81.1 µM

[ask] Return reported TGI. Input compound: CCCCCCCCCCCCCCC1OC(=O)c2ccccc21 (stereo not given)
[reply] > 100 µM

----------
Tested on: UACC-62 melanoma
test: NCI tumour cell line growth inhibition, 48 h
Answer each item with its documented TGI.

[ask] Provide one value: measured TGI of "Cc1cc(C)nc(NS(=O)(=O)c2ccc(NC(=O)c3cccc4c(=O)c5ccccc5[nH]c34)cc2)n1"
[reply] 44.5 µM

[ask] # return recorded TGI for input "CN(C)CCNc1nc2ccccc2c2[nH]c3ccccc3c12"
[reply] 3.55 µM

[ask] Assign TGI to the following record: "CCOC(=O)c1cnc2[nH]ccn2c1=O"
[reply] > 10 µM

[ask] Could you please provide reported TGI for "CCN(CCCN(CC)C(=O)N[C@@H](Cc1ccccc1)C(=O)NC)C(=O)N[C@@H](Cc1ccccc1)C(=O)NC" ? Thanks!
[reply] > 100 µM

[ask] Dear colleague, please send me the reported TGI for "Cc1cccc2c3ccc4c(c3n(C)c12)C(=O)C=CC4=O" when you can.
[reply] > 100 µM

[ask] Complete the entry with TGI for COC(=O)C1CC(C=[N+](C)C)=C(SC)N1 (stereo unspecified)
[reply] > 100 µM

[ask] Kindly indicate its recorded TGI. Item: "Cc1nc2nnc(C)n2c2c1C(=O)Nc1ccccc1N2"
[reply] > 100 µM

[ask] Give the measured TGI for "O=C1CSC(N2CCN(c3cccc(Cl)c3)CC2)=N1"
[reply] > 100 µM

[ask] Please indicate TGI recorded for "Cc1cc(O)cc(O)c1N=Nc1ccc([N+](=O)[O-])cc1"
[reply] 32.2 µM

[ask] Consider the compound "N#Cc1c(OCCF)c2ccccc2n2c1nc1ccccc12" and give its recorded TGI.
[reply] > 100 µM

[ask] Give TGI for the following compound: O=C1NC(=O)C2C(=O)NC(=O)C1C2(c1ccccc1)c1ccc(Cl)cc1 (stereo unspecified)
[reply] > 100 µM

----------
System: KM20L2 colon
test: NCI tumour cell line growth inhibition, 48 h
quantity.name: TGI

[ask] Name the recorded TGI of the item "c1ccc(-c2nnc(-c3nn(-c4ccccc4)c4nc5ccccc5nc34)o2)cc1" in your answer.
[reply] > 100 µM

[ask] Hello, please tell me recorded TGI for this one: C[C@]12CCC(=O)C=C1CC[C@@H]1C2CC[C@]2(C)NC(=O)C(C#N)CC12 (stereo partly specified)
[reply] > 100 µM

[ask] Give a short answer stating reported TGI for O=c1[nH]c(=O)n(C2CC(O)C(CO)O2)cc1C#Cc1c(F)c(F)c(F)c(F)c1F (stereo unspecified) .
[reply] > 100 µM

[ask] Supply reported TGI belonging to this compound: "c1ccc(N=c2snc(-c3ccccc3)s2)cc1"
[reply] > 100 µM

[ask] Identify measured TGI associated with "C[Si](C)(C)c1ccc(CC2(Cc3ccc([Si](C)(C)C)cc3)CCNC2)cc1"
[reply] 3.93 µM

[ask] Kindly indicate its recorded TGI. Item: "O=[N+]([O-])c1ccc(NSc2ccccc2)cc1"
[reply] > 100 µM

----------
Test system: MDA-MB-231 breast
test: NCI tumour cell line growth inhibition, 48 h
Kindly state TGI for each of the entries shown.
Only the number, expressed in µM, is required.

[ask] Write down TGI measured for item "O=C(O[C@H](/C=C/c1ccccc1)P1(=O)N(Cc2ccccc2)[C@@H]2CCCC[C@H]2N1Cc1ccccc1)c1ccccc1"
[reply] 21

[ask] Provide only the value of recorded TGI for "N#Cc1nc(-c2ccc(F)cc2)oc1S(=O)(=O)N1CCOCC1"
[reply] 8.64

[ask] Identify the reported TGI for the following entry. "CN(C)c1ccc2c(c1)oc(=O)c1ccccc12"
[reply] 34.4

[ask] Please report the measured TGI for "O=C(Cc1ccc(/C=C/C(=O)c2ncc[nH]2)cc1)Nc1ccc(Cl)cc1"
[reply] 14.9

The measurements presented in this section are drawn from PubChem BioAssay (NCI).
